pIC50 values for the compounds below.
biological target: Activin receptor type-1 (Homo sapiens); assay: Inhibition of human ALK2 using casein as substrate in presence of [gamma-33P]-ATP by radiometric hotspot assay
Sequence (Q04771 whole entry): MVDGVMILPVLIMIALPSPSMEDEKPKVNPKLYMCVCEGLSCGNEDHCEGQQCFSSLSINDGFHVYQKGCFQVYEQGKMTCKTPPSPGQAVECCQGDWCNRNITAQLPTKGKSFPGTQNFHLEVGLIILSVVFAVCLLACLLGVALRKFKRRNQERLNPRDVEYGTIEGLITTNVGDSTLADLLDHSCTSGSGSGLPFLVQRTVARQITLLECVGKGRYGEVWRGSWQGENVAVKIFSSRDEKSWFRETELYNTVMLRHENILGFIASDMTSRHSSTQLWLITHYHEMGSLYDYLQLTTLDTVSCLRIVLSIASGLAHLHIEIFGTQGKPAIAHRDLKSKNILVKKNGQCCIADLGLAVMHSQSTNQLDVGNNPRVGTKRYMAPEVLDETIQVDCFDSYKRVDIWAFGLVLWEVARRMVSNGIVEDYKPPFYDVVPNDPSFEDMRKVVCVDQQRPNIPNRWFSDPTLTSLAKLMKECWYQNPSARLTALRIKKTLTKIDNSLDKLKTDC
Note on pIC50: it is the negative log10 of concentration, concentration in mol/L.

Previously resolved entries follow.
1. COc1cc(-c2cncc(-c3ccc(N4CCN(C)CC4)cc3)c2C)cc(OC)c1OC = 8.05
2. COc1cc(-c2cncc(-c3ccc(N4CCCNCC4)cc3)c2C)cc(OC)c1OC = 7.89
3. COc1cc(-c2cncc(-c3ccc(N4CCNCC4)cc3)c2Cl)cc(OC)c1OC = 7.80
4. COc1cc(-c2cncc(-c3ccc(OC4CCNCC4)cc3)c2C)cc(OC)c1OC = 8.22
5. COc1cc(-c2cncc(-c3ccc(C4CCN(C)CC4)cc3)c2C)cc(OC)c1OC = 8.15
6. COc1cc(-c2cncc(-c3ccc(N4CCN(CCF)CC4)cc3)c2C)cc(OC)c1OC = 7.77
7. COc1cc(-c2cncc(-c3ccc(N4CCNCC4)cc3)c2C#N)cc(OC)c1F = 7.96

Let us move to another entry and its pIC50.
Find pIC50 (Activin receptor type-1 (Homo sapiens)) for the entry "COc1cc(-c2cncc(-c3ccc(N4C[C@@H](C)N[C@@H](C)C4)cc3)c2C)cc(OC)c1OC"
8.10
